# Assay Target: Porcine pancreatic phospholipase A2 (Sus scrofa)
# Construct: purchased Boehringer Mannheim·Yamanouchi K.K. 161454·122416
# Sequence (P00592 23-146): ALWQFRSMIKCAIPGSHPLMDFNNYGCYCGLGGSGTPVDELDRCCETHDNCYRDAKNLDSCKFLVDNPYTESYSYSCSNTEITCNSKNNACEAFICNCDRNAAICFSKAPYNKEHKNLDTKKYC
# Assay Summary: Phospholipase A2 inhibitory activity, method A (egg yolk lecithin substrate)
# Assay type: biochemical
# Particulars: 1,000 ppm, 37°C for 30 minutes, read-out: % inhibition of PLA2 (1,000 ppm)
Response key: Met means inhibition at 1000 ppm >= 50%; Not met means inhibition at 1000 ppm < 50%.

Would you please look over these solved cases?
Quick check, inhibition at 1000 ppm >= 50%? `CCCCS(=O)(=O)Nc1ncc(C(F)(F)F)cc1NC(=O)C1CCCCC1`
Not met

Now the molecule `CCCCCC(=O)Nc1cc(C(F)(F)F)cnc1NS(C)(=O)=O`
Met

Continuing:
Quick check, inhibition at 1000 ppm >= 50%? `CCCOC(=O)Nc1cc(C(F)(F)F)cnc1NS(C)(=O)=O`
Not met

Now the molecule `COc1ccc(C(=O)Nc2cc(C(F)(F)F)cnc2NS(C)(=O)=O)cc1`
Not met

Where these numbers come from: patent EP0465913B1
